The reported numbers originate from patent US12692269B2.

TEAD3 YAP50-100 HTRF combined: Max % Inhibition listing for selected compounds.
- test-target: TEAD3 YAP50-100 (Homo sapiens, UniProt Q99594)
- Sequence (Q99594 173-435 limits assumed): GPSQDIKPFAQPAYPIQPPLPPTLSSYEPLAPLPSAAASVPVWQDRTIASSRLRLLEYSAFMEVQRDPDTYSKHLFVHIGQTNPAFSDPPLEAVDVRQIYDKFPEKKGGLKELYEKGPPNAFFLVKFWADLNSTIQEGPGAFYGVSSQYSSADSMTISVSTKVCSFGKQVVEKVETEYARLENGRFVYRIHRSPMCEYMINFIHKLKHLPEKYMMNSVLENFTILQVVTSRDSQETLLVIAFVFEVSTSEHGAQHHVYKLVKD
- assay-explanation: TEAD3-YAP HTRF (TR-FRET) protein-protein interaction assay
- Assay type: binding
- recorded-conditions: TEAD3, YAP peptide 50-100, HTRF
- Procedure: Purified His-tagged TEAD protein (YAP Binding Domain, amino acids 217-447) is pre-incubated with Europium labelled anti-His antibody tracer (Perkin Elmer Cat #AD0110). […] After 60 minutes, the plate is read on a plate reader using TR-FRET mode with wavelengths of 665 nm/615 nm. […] The potency of compounds as YAP:TEAD or TAZ:TEAD protein-protein interaction (PPi) inhibitors is determined by an IC50 or EC50 value generated using a non-linear four parameter curve fit.
Field: numeric (%). Do not append units.

Which TEAD3 YAP50-100 HTRF combined: Max % Inhibition reading was recorded for the compound C[C@@H](CO)c1nn2c(=O)cc(-c3ccc(C4CCCCC4)cc3)[nH]c2c1C(=O)N1CC(CF)C1 (single isomer, unassigned) [Enantiomer B, Example 55] ? 61.5

Entry to check: `O=C(c1c(-c2cccnc2)nn2c(=O)cc(-c3ccc(C4CCCCC4)cc3)[nH]c12)N1CC(CF)C1` 64.0

Entry to check: `O=C(c1c(-c2ccccc2)nn2c(=O)cc(-c3ccc(C4CCCCC4)cc3)[nH]c12)N1CC(CF)C1` 65.0

Entry to check: `Cc1ccnc(-c2nn3c(=O)cc(-c4ccc(C5CCCCC5)cc4)[nH]c3c2C(=O)N2CC(CF)C2)c1` 54.5

###

TEAD3 YAP50-100 HTRF combined: Max % Inhibition listing for selected compounds.
- test-target: TEAD3 YAP50-100 (Homo sapiens, UniProt Q99594)
- assay-explanation: TEAD3-YAP HTRF (TR-FRET) protein-protein interaction assay
- Type: binding
- recorded-conditions: TEAD3, YAP peptide 50-100, HTRF
- Protocol: Purified His-tagged TEAD protein (YAP Binding Domain, amino acids 217-447) is pre-incubated with Europium labelled anti-His antibody tracer (Perkin Elmer Cat #AD0110). […] After 60 minutes, the plate is read on a plate reader using TR-FRET mode with wavelengths of 665 nm/615 nm. […] The potency of compounds as YAP:TEAD or TAZ:TEAD protein-protein interaction (PPi) inhibitors is determined by an IC50 or EC50 value generated using a non-linear four parameter curve fit.
Field: numeric (%). Do not append units.

// worked examples, TEAD3 YAP50-100 HTRF combined: Max % Inhibition included
Which TEAD3 YAP50-100 HTRF combined: Max % Inhibition reading was recorded for the compound C[C@H]1[C@@H](CF)CN1C(=O)c1c(-c2cnccn2)nn2c(=O)cc(-c3ccc(CC4CCCC4)cc3)[nH]c12 (single isomer, unassigned) [Isomer B, Example 44] ? 61.5

Entry to check: `Cc1nccnc1-c1nn2c(=O)cc(-c3ccc(O[C@H](c4ccccc4)C(F)(F)F)cc3)[nH]c2c1C(=O)N1CC(CF)C1` 67.5

Entry to check: C[C@H]1[C@@H](CF)CN1C(=O)c1c(-c2cnccn2)nn2c(=O)cc(-c3ccc(CC4CCCC4)cc3)[nH]c12 (single isomer, unassigned) [Isomer A, Example 44] 65.5

---
Which TEAD3 YAP50-100 HTRF combined: Max % Inhibition reading was recorded for the compound Cc1nccnc1-c1nn2c(=O)cc(-c3ccc(CC4CCCC4)cc3)[nH]c2c1C(=O)N1C[C@H](CF)[C@@H]1C (single isomer, unassigned) [Isomer B, Example 42] ? 68.0

Entry to check: `CCCCc1ccc(-c2cc(=O)n3nc(-c4nccnc4C)c(C(=O)N4CC(CF)C4)c3[nH]2)cc1` 64.5

Entry to check: `O=C(c1c(-c2cnccn2)nn2c(=O)cc(-c3ccc(C4CCCCC4)cc3)[nH]c12)N1CC(CF)C1` 63.3
